Test system: Saccharomyces cerevisiae
ASSAY DETAILS: protein stability index of tFT-peptide fusion (C-terminal peptide) (PSI (0-1 scale)); higher = more stable (slower turnover)
CONDITION NOTES: genetic background: wild type; temperature: 30 C
QUANTITY MEASURED: protein stability index
Numbers only.

Some sequences with known protein stability index results, for comparison:
KDGAGGDWDVGE; 0.695
FASIESVENIEM; 0.709
ADKNQQTVNWRR; 0.696

Please look at the items below and tell me protein stability index for each one, in order.
1. NHQKFILAACGT
2. QKENTKEKKKRE

1. 0.68
2. 0.686

###

Consider the following sequences; for each one, report its protein stability index.
Tested on: Saccharomyces cerevisiae;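 note: PSI is a weighted mean of sequencing reads over stability bins, variants kept only with over 10 reads, mCherry proximal and sfGFP distal, peptide attached via GGGS linker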
ASSAY DETAILS: protein stability index of tFT-peptide fusion (C-terminal peptide) (PSI (0-1 scale)); higher = more stable (slower turnover)
CONDITION NOTES: genetic background: wild type; temperature: 30 C

See these solved cases before continuing.
AGWGGIWGLWVL; 0.715
RSSECNQLYTHK; 0.682
RLGRSEVREYAW; 0.716

Field: protein stability index. Fill in for each record below.
1. LFLCSGWVACWW
2. QDQWINTSLELS
3. RNTKGIIKKKKE
4. FRHKLSLGLVIV
5. SVPFPTEYLVVD

1: 0.498; 2: 0.751; 3: 0.702; 4: 0.507; 5: 0.681
